- Tested on: F380Y/beta1
- Experiment Description: modulators of BK channel variants, profiling panel, selectivity assay, cell-based, U2OS BacMam, thallium flux, beta subunits (AID 1259406);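 also: initial slope of Thallos dye fluorescence rise after thallium is added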
- Applied Conditions: at 30 µM
The source made the active and inactive calls.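 The calls were made as follows: active = thallium flux through the channel raised or lowered by more than 3 SD from vehicle-only wells, actives on both sides; inactive = the rest.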
Labels: active, inactive

>>> print(df.to_string())
                                    compound  tested_target  discrete_label
 0          Cc1ccc(Cl)c(Nc2ccccc2C(=O)O)c1Cl    F380Y/beta1          active
 1                     S=c1nc[nH]c2nc[nH]c12    F380Y/beta1        inactive
 2             CN(C)CCCN1c2ccccc2CCc2ccccc21    F380Y/beta1        inactive
 3           NC(=O)N1c2ccccc2CC(=O)c2ccccc21    F380Y/beta1        inactive
 4  C[C@]12CCC(=O)C=C1CC[C@@H]1[C@@H]2C(=O)C[C@@]2(C)[C@H]1CC[C@]2(O)C(=O)CO    F380Y/beta1        inactive
 5  CCOC(=O)C1=C(C)NC(C)=C(C(=O)OC)C1c1cccc([N+](=O)[O-])c1 (stereo not given)    F380Y/beta1        inactive
 6          CCCCCCNC(=O)n1cc(F)c(=O)[nH]c1=O    F380Y/beta1        inactive
 7  CC1Cc2ccccc2N1NC(=O)c1ccc(Cl)c(S(N)(=O)=O)c1 (stereo not given)    F380Y/beta1        inactive
 8  COc1ccc(OC)c(C(O)CNC(=O)CN)c1 (stereo not given)    F380Y/beta1        inactive
 9       CC(C)(C)NC[C@H](O)COc1nsnc1N1CCOCC1    F380Y/beta1        inactive
10  CC1=C(/C=C/C(C)=C/C=C/C(C)=C/C(=O)O)C(C)(C)CCC1    F380Y/beta1        inactive
11      Clc1ccc2c(c1)C(N1CCNCC1)=Nc1ccccc1O2    F380Y/beta1        inactive
12                CCN(CC)CCNC(=O)c1ccc(N)cc1    F380Y/beta1        inactive
13  COc1cc(NC(C)CCCN)c2ncccc2c1 (stereo not given)    F380Y/beta1        inactive
14      C=C(CC)C(=O)c1ccc(OCC(=O)O)c(Cl)c1Cl    F380Y/beta1        inactive
15              CC1=NS(=O)(=O)c2cc(Cl)ccc2N1    F380Y/beta1        inactive
16  COc1ccccc1OCCNCC(O)COc1cccc2[nH]c3ccccc3c12 (stereo not given)    F380Y/beta1          active
17  CCOC(=O)[C@H](CCc1ccccc1)N[C@@H](C)C(=O)N1Cc2ccccc2C[C@H]1C(=O)O    F380Y/beta1        inactive
18                           N[C@@H]1CONC1=O    F380Y/beta1        inactive
19            Oc1ccc(/C=C/c2cc(O)cc(O)c2)cc1    F380Y/beta1          active
20  COc1cc2nc(N(C)CCCNC(=O)C3CCCO3)nc(N)c2cc1OC (stereo not given)    F380Y/beta1        inactive
21       CC(C)Oc1ccc2c(=O)c(-c3ccccc3)coc2c1    F380Y/beta1        inactive
22                   CC[N+](C)(C)c1cccc(O)c1    F380Y/beta1        inactive
23  CC(C)NCC(O)c1ccc(O)c(O)c1 (stereo not given)    F380Y/beta1        inactive
24      Cc1ccc(S(=O)(=O)NC(=O)NN2CCCCCC2)cc1    F380Y/beta1        inactive

Value source: PubChem BioAssay
